Assign IC50 to each entry below.
Molecular target: endogenous CETP from serum (Homo sapiens, UniProt P11597)
Construct: yielding a concentration of approximately 15 nM endogenous CETP in the assay; from tissue; host or cells: human serum
Sequence (P11597 18-493): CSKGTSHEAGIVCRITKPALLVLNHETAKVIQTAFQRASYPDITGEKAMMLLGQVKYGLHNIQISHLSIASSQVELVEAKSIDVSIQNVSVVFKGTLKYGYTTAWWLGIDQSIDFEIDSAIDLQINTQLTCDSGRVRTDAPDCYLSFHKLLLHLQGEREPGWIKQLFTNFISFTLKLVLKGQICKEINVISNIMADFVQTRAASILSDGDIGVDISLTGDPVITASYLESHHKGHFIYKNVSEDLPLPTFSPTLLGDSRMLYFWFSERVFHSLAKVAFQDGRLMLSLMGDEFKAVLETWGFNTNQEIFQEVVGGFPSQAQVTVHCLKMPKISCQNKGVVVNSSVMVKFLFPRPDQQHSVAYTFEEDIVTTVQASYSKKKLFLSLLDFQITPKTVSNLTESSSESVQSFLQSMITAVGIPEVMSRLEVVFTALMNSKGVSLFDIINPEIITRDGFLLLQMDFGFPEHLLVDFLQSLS
Assay: RTA assay in 95% human serum (in vitro radioactive assay of CETP-catalyzed CE and TG transfer, endogenous CETP)
Assay type: biochemical
Conditions: read-out: IC50 (nM) RTA with 95% HS
Give bare numbers, in nM.

Worked cases, IC50 given:
compound.structure.string	unit.label	IC50
COc1ncc(-c2ccc(C(=O)O)cc2C)cc1-c1ccc(C(F)(F)F)nc1CC1=NO[C@H](c2cc(C(F)(F)F)cc(C(F)(F)F)c2)C1	nM	400
COc1ncc(-c2c(C)cc(C(=O)O)cc2C)cc1-c1ccc(C(F)(F)F)cc1CC1=NO[C@H](c2cc(C(F)(F)F)cc(C(F)(F)F)c2)[C@@H]1C	nM	343
COc1ncc(-c2ccc(C(=O)O)cc2C)cc1-c1ccc(C(F)(F)F)cc1CC1=NO[C@H](c2cc(C(F)(F)F)cc(C(F)(F)F)c2)[C@@H]1C	nM	169

Your task in this section: give IC50 for each listed record.
1. COc1cc(F)c(C(C)C)cc1-c1ccc(C(F)(F)F)cc1CC1=NO[C@H](c2cc(C(F)(F)F)cc(C(F)(F)F)c2)C1
2. COc1ncc(-c2ccc(C(=O)O)cc2C)cc1-c1cnc(C(F)(F)F)cc1CC1=NO[C@H](c2cc(C(F)(F)F)cc(C(F)(F)F)c2)C1
3. COc1ccc(CCC(=O)O)cc1-c1ccc(C(F)(F)F)cc1CC1=NO[C@H](c2cc(C(F)(F)F)cc(C(F)(F)F)c2)C1
4. COc1ccc(-c2cc(-c3ccc(C(=O)O)cc3C)cnc2OC)c(CC2=NO[C@H](c3cc(C(F)(F)F)cc(C(F)(F)F)c3)C2)n1
5. COc1ccc(-c2ccc(C(=O)O)cc2C)cc1-c1cnc(C(F)(F)F)cc1CC1=NO[C@H](c2cc(C(F)(F)F)cc(C(F)(F)F)c2)C1
6. COc1ncc(-c2ccc(C(=O)O)cc2C)cc1-c1ccc(C(F)(F)F)cc1CC1=NO[C@H](c2cc(C(F)(F)F)cc(C(F)(F)F)c2)C1

1: 1290; 2: 4970; 3: 1500; 4: 880; 5: 1070; 6: 537

Your task in this section: give IC50 for each listed record.
1. COc1ccc(-c2cc(-c3ccc(C(=O)O)cc3C)ccc2OC)c(CC2=NO[C@H](c3cc(C(F)(F)F)cc(C(F)(F)F)c3)C2)n1
2. COc1ncc(-c2ccc(C(=O)O)cc2C)cc1-c1ccc(C(F)(F)F)cc1CC1=NO[C@H](c2ccnc(C(F)(F)F)c2)C1

[176, 6500]
